Target: apamin-sensitive sites of the SK channels
Assay: Competition binding between 125I-apamin and bis-tetrahydroisoquinoline derivatives on rat cortical synaptosomes
Conditions: separated stereoisomers; rat cortical apamin sensitive sites; 125I-apamin; listed as 4n E1
Protocol: These experiments are used to evaluate the potency of the bis-tetrahydroisoquinoline derivatives to interact with the apamin-sensitive sites of the SK channels, the selected target for which a blockade is expected to be useful in the treatment of Alzheimer's disease, Parkinson's disease, schizophrenia, cognitive dysfunction, or depression. Two reference compounds are also tested for comparison […]
measure: Ki

Sample COc1cc2c(cc1OC)C(Cc1ccc(CC3c4cc(OC)c(OC)cc4CCN3C)cc1)N(C)CC2 (stereo not shown) [Compound 4n E1] — what was its Ki?
1010 nM

###

target: apamin-sensitive sites of the SK channels; assay: Competition binding between 125I-apamin and bis-tetrahydroisoquinoline derivatives on rat cortical synaptosomes; conditions: separated stereoisomers; rat cortical apamin sensitive sites; 125I-apamin; listed as 4f MESO, hydrochloride
Counter-ions that a name gives are not always drawn.
measure: Ki
The number alone won't do; follow it with the unit.

Enter reported Ki observed with apamin-sensitive sites of the SK channels for COc1cc2c(cc1OC)C(CCCCCC1c3cc(OC)c(OC)cc3CCN1C)N(C)CC2 (stereo not drawn) [Compound 4f MESO, hydrochloride]
731 nM

###

target: apamin-sensitive sites of the SK channels; test: Competition binding between 125I-apamin and bis-tetrahydroisoquinoline derivatives on rat cortical synaptosomes; conditions: separated stereoisomers; rat cortical apamin sensitive sites; 125I-apamin; listed as 4g E2, hydrochloride
Structures can show the parent of a compound that is named as a salt.
measure: pKi
Value format note: pKi is -log10 of concentration (mol/L); just state the number.

Data request, read-out pKi, for COc1cc2c(c(OC)c1OC)C(CCCC1c3c(cc(OC)c(OC)c3OC)CCN1C)N(C)CC2 (stereo not shown) [Compound 4g E2, hydrochloride]
5.96

###

biological target: apamin-sensitive sites of the SK channels; assay: Competition binding between 125I-apamin and bis-tetrahydroisoquinoline derivatives on rat cortical synaptosomes; conditions: separated stereoisomers; rat cortical apamin sensitive sites; 125I-apamin; listed as 4g E1, hydrochloride
Structures can show the parent of a compound that is named as a salt.
measure: Ki (nM)
Write the number in nM without appending the unit.

Observed Ki on apamin-sensitive sites of the SK channels for COc1cc2c(c(OC)c1OC)C(CCCC1c3c(cc(OC)c(OC)c3OC)CCN1C)N(C)CC2 (stereo not shown) [Compound 4g E1, hydrochloride] , please.
1740

###

molecular target: apamin-sensitive sites of the SK channels; assay: Competition binding between 125I-apamin and bis-tetrahydroisoquinoline derivatives on rat cortical synaptosomes; conditions: separated stereoisomers; rat cortical apamin sensitive sites; 125I-apamin; listed as 4d E2, hydrochloride
Structures can show the parent of a compound that is named as a salt.
measure: Ki (µM)
Enter your answer as a number in µM; do not include the unit.

Entry COc1cc2c(cc1OC)C(CCCC1c3cc(OC)c(OC)cc3CCN1C)N(C)CC2 (stereo not shown) [Compound 4d E2, hydrochloride] has what Ki?
1.89

###

biological target: apamin-sensitive sites of the SK channels; assay: Competition binding between 125I-apamin and bis-tetrahydroisoquinoline derivatives on rat cortical synaptosomes; conditions: separated stereoisomers; rat cortical apamin sensitive sites; 125I-apamin; listed as 4f E2, hydrochloride
Structures can show the parent of a compound that is named as a salt.
measure: Ki (nM)
Lab book: enter the figure in nM, no units written.

Please tell me: Ki of COc1cc2c(cc1OC)C(CCCCCC1c3cc(OC)c(OC)cc3CCN1C)N(C)CC2 (stereo not shown) [Compound 4f E2, hydrochloride] , system apamin-sensitive sites of the SK channels?
1300

###

target: apamin-sensitive sites of the SK channels; test: Competition binding between 125I-apamin and bis-tetrahydroisoquinoline derivatives on rat cortical synaptosomes; conditions: separated stereoisomers; rat cortical apamin sensitive sites; 125I-apamin; listed as 4n E2
measure: Ki (nM)
Use nM as the unit, but write only the number.

Can you look up the measured Ki of COc1cc2c(cc1OC)C(Cc1ccc(CC3c4cc(OC)c(OC)cc4CCN3C)cc1)N(C)CC2 (stereo not shown) [Compound 4n E2] for me?
1120

###

biological target: apamin-sensitive sites of the SK channels; assay: Competition binding between 125I-apamin and bis-tetrahydroisoquinoline derivatives on rat cortical synaptosomes; details: separated stereoisomers; rat cortical apamin sensitive sites; 125I-apamin
Where a name gives a salt, the structure may show the parent alone.
measure: Ki (nM)
Use nM as the unit, but write only the number.

Consider the worked cases shown below.
{"compound": "COc1cc2c(cc1OC)[C@@H](CCC[C@H]1c3cc(OC)c(OC)cc3CCN1C)N(C)CC2 [Compound 4d MESO, hydrochloride]", "tested_on": "apamin-sensitive sites of the SK channels", "measure": "Ki", "measured_value": 1420}
{"compound": "COc1cc2c(c(OC)c1OC)[C@@H](CCC[C@H]1c3c(cc(OC)c(OC)c3OC)CCN1C)N(C)CC2 [Compound 4g MESO, hydrochloride]", "tested_on": "apamin-sensitive sites of the SK channels", "measure": "Ki", "measured_value": 1670}
{"compound": "Cc1cc(N)c2ccccc2[n+]1CCCCCCCCCC[n+]1c(C)cc(N)c2ccccc21 [DQ+, Dequalinium, reference compound]", "tested_on": "apamin-sensitive sites of the SK channels", "measure": "Ki", "measured_value": 221}

// below: Ki requested for another compound
Bench note: what Ki did COc1cc2c(cc1OC)[C@@H](Cc1ccc(C[C@H]3c4cc(OC)c(OC)cc4CCN3C)cc1)N(C)CC2 [Compound 4n MESO] show?
566

###

target: apamin-sensitive sites of the SK channels; test: Competition binding between 125I-apamin and bis-tetrahydroisoquinoline derivatives on rat cortical synaptosomes; details: separated stereoisomers; rat cortical apamin sensitive sites; 125I-apamin; listed as 4h E2, hydrochloride
Structures can show the parent of a compound that is named as a salt.
measure: Ki (nM)
// units = nM; emit number, no label

Form entry - test system: apamin-sensitive sites of the SK channels; read-out: Ki; molecule: COc1cc2c(c(OC)c1OC)C(CCCCC1c3c(cc(OC)c(OC)c3OC)CCN1C)N(C)CC2 (stereo not shown) [Compound 4h E2, hydrochloride]
746

###

target: apamin-sensitive sites of the SK channels; experiment: Competition binding between 125I-apamin and bis-tetrahydroisoquinoline derivatives on rat cortical synaptosomes; details: separated stereoisomers; rat cortical apamin sensitive sites; 125I-apamin; listed as 4m E1
measure: Ki (nM)
Quick reminder: number only, in nM, skip the unit.

Which measured Ki value corresponds to COc1cc2c(cc1OC)C(Cc1cccc(CC3c4cc(OC)c(OC)cc4CCN3C)c1)N(C)CC2 (stereo not shown) [Compound 4m E1] ?
1280

###

tested on: apamin-sensitive sites of the SK channels; assay: Competition binding between 125I-apamin and bis-tetrahydroisoquinoline derivatives on rat cortical synaptosomes; conditions: 10 μM compound; ±10 pM 125I-apamin; rat cortical synaptosomes, 1 h at 0° C.
% of 125I-apamin displaced at 10 μM below 20% gives 0 (no); % of 125I-apamin displaced at 10 μM at or above it gives 1 (yes).

Worked examples follow.
{"compound": "CN1CCc2ccccc2C1CCCCC1c2ccccc2CCN1C.Cl (stereo not drawn) [Compound 4b]", "group_label": "0 (no)"}
{"compound": "COc1cc2c(cc1OC)C(CCCCCC1c3cc(OC)c(OC)cc3CCN1C)N(C)CC2.Cl (stereo not drawn) [Compound 4f]", "group_label": "1 (yes)"}

Dear colleague, could you confirm whether COc1cc2c(cc1OC)C(CCCC1c3cc(OC)c(OC)cc3CCN1C)N(C)CC2.Cl (stereo not drawn) [Compound 4d] has % of 125I-apamin displaced at 10 μM at or above 20%?
1 (yes)

Try the compound COc1cc2c(cc1OC)C(CCCCC1c3cc(OC)c(OC)cc3CCN1C)N(C)CC2.Cl (stereo not drawn) [Compound 4e]
1 (yes)

Also COc1cc2c(c(OC)c1OC)C(CCCC1c3c(cc(OC)c(OC)c3OC)CCN1C)N(C)CC2.Cl (stereo not drawn) [Compound 4g] ?
1 (yes)

Next record, please: CN1CCc2ccccc2C1CCCC1c2ccccc2CCN1C.Cl (stereo not drawn) [Compound 4a]
0 (no)

###

system: apamin-sensitive sites of the SK channels; test: Competition binding between 125I-apamin and bis-tetrahydroisoquinoline derivatives on rat cortical synaptosomes; conditions: 10 μM compound; ±10 pM 125I-apamin; rat cortical synaptosomes, 1 h at 0° C.
measure: % of 125I-apamin displaced at 10 μM (%)
Lab book: enter the figure in %, no units written.

{"molecule": "COc1cc2c(c(OC)c1OC)C(CCCCC1c3c(cc(OC)c(OC)c3OC)CCN1C)N(C)CC2.Cl (stereo not shown) [Compound 4h]", "tested_on": "apamin-sensitive sites of the SK channels", "% of 125I-apamin displaced at 10 μM (%)": 86}
{"molecule": "COc1ccc(C[C@H]2c3cc(OC)c(OC)cc3CC[N+]2(C)C)cc1OC [NML, N-methyl-laudanosine, reference compound]", "tested_on": "apamin-sensitive sites of the SK channels", "% of 125I-apamin displaced at 10 μM (%)": 54}
{"molecule": "COc1cc2c(cc1OC)C(Cc1ccc(CC3c4cc(OC)c(OC)cc4CCN3C)cc1)N(C)CC2 (stereo not shown) [Compound 4o]", "tested_on": "apamin-sensitive sites of the SK channels", "% of 125I-apamin displaced at 10 μM (%)": 90}

Consider the record given below.
Bench note: what % of 125I-apamin displaced at 10 μM did CN1CCc2ccccc2C1CCCCCC1c2ccccc2CCN1C.Cl (stereo not shown) [Compound 4c] show?
9
